reported property: melting point

Some compounds with recorded melting point:
>>> reading("CCCNCCNc1nc(-c2cc(C(=O)NC3CC3)ccc2C)c2ccc(=O)n(-c3c(F)cccc3F)c2n1")
"120 to 134 °C"
>>> reading("Cc1ccc(NC(=O)c2ccsc2)cc1-c1nc(N2CCC(N)CC2)nc2c1ccc(=O)n2-c1c(F)cccc1F")
"183.8 to 187.9 °C"
>>> reading("Cc1ccc(C(=O)NC2CC2)cc1-c1nc(NC2CC(C)(C)NC(C)(C)C2)nc2c1ccc(=O)n2-c1c(F)cccc1F")
"326.3 to 327.9 °C"

Q: Any idea what its melting point is? The compound is Cc1c(F)cc(C(=O)NC2CC2)cc1-c1nc(NC(CO)CO)nc2c1ccc(=O)n2-c1c(F)cccc1F [18(e)]
Ans: 214.2 to 217.5 °C

Q: Same again, this time with `CCCNC(=O)c1ccc(C)c(-c2nc(N(C)CCCN(C)C)nc3c2ccc(=O)n3-c2c(F)cccc2F)c1`
Ans: 104 to 109 °C
